Attribute: pIC50
- ASSAYED_TARGET: DPP9 (Homo sapiens, UniProt Q86TI2)
- Sequence (Q86TI2 whole entry): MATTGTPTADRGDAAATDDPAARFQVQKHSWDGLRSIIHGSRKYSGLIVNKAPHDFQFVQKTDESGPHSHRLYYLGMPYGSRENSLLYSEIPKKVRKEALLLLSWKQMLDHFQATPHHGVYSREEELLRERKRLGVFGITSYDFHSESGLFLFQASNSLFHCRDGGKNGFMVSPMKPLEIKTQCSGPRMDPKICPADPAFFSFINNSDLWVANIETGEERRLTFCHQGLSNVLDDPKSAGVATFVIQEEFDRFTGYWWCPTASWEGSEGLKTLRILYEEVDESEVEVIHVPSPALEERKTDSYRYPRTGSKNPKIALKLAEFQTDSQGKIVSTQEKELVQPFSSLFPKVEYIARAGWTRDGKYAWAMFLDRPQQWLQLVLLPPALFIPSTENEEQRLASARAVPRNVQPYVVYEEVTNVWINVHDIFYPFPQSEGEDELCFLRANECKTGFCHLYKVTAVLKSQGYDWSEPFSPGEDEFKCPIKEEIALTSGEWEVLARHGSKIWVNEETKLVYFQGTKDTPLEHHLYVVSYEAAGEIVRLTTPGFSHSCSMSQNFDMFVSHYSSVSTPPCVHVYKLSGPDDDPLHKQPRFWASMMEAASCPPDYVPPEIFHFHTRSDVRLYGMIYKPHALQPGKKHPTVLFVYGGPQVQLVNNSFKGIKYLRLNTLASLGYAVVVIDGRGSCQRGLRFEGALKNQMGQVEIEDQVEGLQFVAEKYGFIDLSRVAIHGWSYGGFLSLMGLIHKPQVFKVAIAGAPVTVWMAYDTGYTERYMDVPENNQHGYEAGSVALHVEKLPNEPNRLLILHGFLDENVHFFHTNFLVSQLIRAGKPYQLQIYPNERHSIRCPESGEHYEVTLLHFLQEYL
- METHOD: biochemical
- Assay type: biochemical
- Design: purchased Proteros Biostructures GmbH, Germany
pIC50: −log10 of the molar value.

{"COMPOUND": "CCCCCCP(=O)(OCC)N1CCC[C@H](N)C1=O (some centres unmarked)", "ASSAYED_TARGET": "DPP9 (Homo sapiens, UniProt Q86TI2)", "pIC50": 4.37}
{"COMPOUND": "N[C@H]1CCCN([P@@](N)(=O)NS(=O)(=O)O)C1=O", "ASSAYED_TARGET": "DPP9 (Homo sapiens, UniProt Q86TI2)", "pIC50": 5.86}

###

- Test system: HeLa wild-type cells
- METHOD: Cell viability assay (MTT), co-treatment with Mitomycin C
- Format: cell-based
- TEST_SETTINGS: Figure 5d S11a; + Ctrl. [+MMC] vs. compound [+MMC]; Tukey's multiple comparisons test

{"COMPOUND": "CCCCCc1ccc(SCCP(=O)(OCC)N2CCC[C@H](N)C2=O)cc1.O=C(O)C(F)(F)F (stereo partly shown)", "ASSAYED_TARGET": "HeLa wild-type cells", "95% confidence interval of difference": "1,107 to 22,31"}
{"COMPOUND": "N[C@@H](CC(=O)N1CCn2c(nnc2C(F)(F)F)C1)Cc1cc(F)c(F)cc1F", "ASSAYED_TARGET": "HeLa wild-type cells", "95% confidence interval of difference": "-7,015 to 14,19"}
{"COMPOUND": "CCCCCCP(=O)(OCC)N1CCC[C@H](N)C1=O (stereo partly shown)", "ASSAYED_TARGET": "HeLa wild-type cells", "95% confidence interval of difference": "-9,959 to 11,24"}
{"COMPOUND": "N[C@@H](CC(=O)N1CCN(C(c2ccc(F)cc2)c2ccc(F)cc2)CC1)C(=O)N1Cc2ccccc2C1 [1G244, reference compound]", "ASSAYED_TARGET": "HeLa wild-type cells", "95% confidence interval of difference": "21,97 to 43,17"}

###

- ASSAYED_TARGET: DPP4 (Homo sapiens, UniProt P27487)
- Construct: purchased Proteros Biostructures GmbH, Germany
- Sequence (P27487 whole entry): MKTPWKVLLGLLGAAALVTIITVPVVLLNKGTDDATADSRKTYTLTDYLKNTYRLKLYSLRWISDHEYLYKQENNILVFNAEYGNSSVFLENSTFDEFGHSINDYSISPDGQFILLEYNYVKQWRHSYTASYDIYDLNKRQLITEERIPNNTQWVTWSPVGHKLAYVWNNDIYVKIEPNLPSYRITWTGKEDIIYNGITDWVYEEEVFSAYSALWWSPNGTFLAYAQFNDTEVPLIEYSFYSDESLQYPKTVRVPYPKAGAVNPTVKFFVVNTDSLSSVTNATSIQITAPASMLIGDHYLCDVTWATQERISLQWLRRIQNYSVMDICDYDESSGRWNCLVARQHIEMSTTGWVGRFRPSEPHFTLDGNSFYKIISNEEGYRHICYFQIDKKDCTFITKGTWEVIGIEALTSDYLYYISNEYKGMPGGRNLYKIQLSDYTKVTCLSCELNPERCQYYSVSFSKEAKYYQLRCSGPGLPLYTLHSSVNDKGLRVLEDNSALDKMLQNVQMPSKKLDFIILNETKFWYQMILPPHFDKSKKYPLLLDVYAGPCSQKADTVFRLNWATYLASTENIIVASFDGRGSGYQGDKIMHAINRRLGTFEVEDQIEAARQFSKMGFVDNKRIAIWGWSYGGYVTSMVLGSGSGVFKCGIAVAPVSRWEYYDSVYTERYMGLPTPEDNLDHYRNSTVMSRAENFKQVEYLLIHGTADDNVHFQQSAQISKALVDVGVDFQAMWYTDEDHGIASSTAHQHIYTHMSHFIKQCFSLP
- METHOD: biochemical
- Type: biochemical
- TEST_SETTINGS: GP-AMC 250 µM, 10 nM enzyme, 45 min pre-incubation at 30 °C; read-out: IC50 DPP4
ENDPOINT_NAME: IC50 (µM)

{"MOLECULE": "C#CCCCP(=O)(OCC)N1CCCC(N)C1=O.O=C(O)C(F)(F)F (mixture of isomers)", "ENDPOINT_NAME": "IC50", "QUANTITATIVE_RESULT": 2.99}
{"MOLECULE": "CCCCCc1ccc(SCCP(=O)(OCC)N2CCC[C@H](N)C2=O)cc1.O=C(O)C(F)(F)F (some centres unmarked)", "ENDPOINT_NAME": "IC50", "QUANTITATIVE_RESULT": 16.1}

###

- ASSAYED_TARGET: DPP8 (Homo sapiens)
- Construct: purchased Proteros Biostructures GmbH, Germany
- METHOD: biochemical
- Type: biochemical
- TEST_SETTINGS: GP-AMC 250 µM, 10 nM enzyme, 45 min pre-incubation at 30 °C; read-out: IC50 DPP8
pIC50: −log10 of the molar value.
Attribute: pIC50
ENDPOINT_NAME: pIC50

{"COMPOUND": "CCCCCc1ccc(SCCP(=O)(OCC)N2CCC[C@H](N)C2=O)cc1.O=C(O)C(F)(F)F (stereo partly shown)", "ENDPOINT_NAME": "pIC50", "QUANTITATIVE_RESULT": 7.85}
{"COMPOUND": "NC1CCCN(P(N)(=O)NS(=O)(=O)O)C1=O (stereo not shown) [WTC0260B]", "ENDPOINT_NAME": "pIC50", "QUANTITATIVE_RESULT": 4.55}
{"COMPOUND": "C#CCCCP(=O)(OCC)N1CCCC(N)C1=O.O=C(O)C(F)(F)F (mixture of isomers)", "ENDPOINT_NAME": "pIC50", "QUANTITATIVE_RESULT": 6.18}
{"COMPOUND": "N[C@@H](CC(=O)N1CCN(C(c2ccc(F)cc2)c2ccc(F)cc2)CC1)C(=O)N1Cc2ccccc2C1 [1G244, reference compound]", "ENDPOINT_NAME": "pIC50", "QUANTITATIVE_RESULT": 8.36}

###

- ASSAYED_TARGET: DPP8 (Homo sapiens, UniProt Q6V1X1)
- Construct: purchased Proteros Biostructures GmbH, Germany
- Sequence (Q6V1X1 whole entry): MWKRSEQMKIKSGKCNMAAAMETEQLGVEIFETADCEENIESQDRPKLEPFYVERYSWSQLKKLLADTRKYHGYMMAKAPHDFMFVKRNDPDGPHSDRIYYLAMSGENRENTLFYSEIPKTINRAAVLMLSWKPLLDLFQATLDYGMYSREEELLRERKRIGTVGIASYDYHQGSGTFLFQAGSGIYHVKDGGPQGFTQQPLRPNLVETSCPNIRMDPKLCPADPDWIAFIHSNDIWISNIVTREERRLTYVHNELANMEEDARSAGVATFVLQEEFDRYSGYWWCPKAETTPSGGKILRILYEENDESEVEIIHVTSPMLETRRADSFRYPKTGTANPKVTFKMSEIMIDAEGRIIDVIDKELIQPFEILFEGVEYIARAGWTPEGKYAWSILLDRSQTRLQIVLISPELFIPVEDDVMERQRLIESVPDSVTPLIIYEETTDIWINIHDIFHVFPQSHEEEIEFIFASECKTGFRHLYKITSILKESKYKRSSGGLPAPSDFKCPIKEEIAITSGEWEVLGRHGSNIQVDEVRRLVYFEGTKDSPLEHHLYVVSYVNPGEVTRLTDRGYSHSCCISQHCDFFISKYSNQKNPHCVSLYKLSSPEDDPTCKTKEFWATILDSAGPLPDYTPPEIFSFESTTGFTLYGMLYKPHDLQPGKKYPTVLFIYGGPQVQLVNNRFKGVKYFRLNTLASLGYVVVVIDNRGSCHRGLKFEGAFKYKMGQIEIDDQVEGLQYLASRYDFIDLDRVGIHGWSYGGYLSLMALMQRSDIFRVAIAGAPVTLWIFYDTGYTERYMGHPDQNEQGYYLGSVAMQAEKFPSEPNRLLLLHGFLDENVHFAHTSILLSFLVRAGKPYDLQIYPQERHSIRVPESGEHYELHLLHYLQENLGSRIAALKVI
- METHOD: biochemical
- Type: biochemical
Attribute: IC50

{"COMPOUND": "CCCCCCP(=O)(OCC)N1CCC[C@H](N)C1=O (some centres unmarked)", "IC50 [µM]": 13.7}
{"COMPOUND": "N[C@H]1CCCN([P@@](N)(=O)NS(=O)(=O)O)C1=O", "IC50 [µM]": 6.93}

###

- ASSAYED_TARGET: DPP4 (Homo sapiens, UniProt P27487)
- Construct: purchased Proteros Biostructures GmbH, Germany
- METHOD: biochemical
- Format: biochemical
- TEST_SETTINGS: IC50 DPP4, GP-AMC 250 µM, 10 nM enzyme, 45 min pre-incubation at 30 °C
pIC50: −log10 of the molar value.
ENDPOINT_NAME: pIC50

{"COMPOUND": "CCCCCCP(=O)(OCC)N1CCC[C@H](N)C1=O (stereo partly shown)", "QUANTITATIVE_RESULT": 4.33}

###

- ASSAYED_TARGET: DPP9 (Homo sapiens, UniProt Q86TI2)
- METHOD: biochemical
- Type: biochemical
- Design: purchased Proteros Biostructures GmbH, Germany
- TEST_SETTINGS: GP-AMC 250 µM, 10 nM enzyme, 45 min pre-incubation at 30 °C; read-out: IC50 DPP9

{"COMPOUND": "CCCCCc1ccc(SCCP(=O)(OCC)N2CCC[C@H](N)C2=O)cc1.O=C(O)C(F)(F)F (stereo partly shown)", "UNITS_TEXT": "nM", "IC50": 298}
{"COMPOUND": "C#CCCCP(=O)(OCC)N1CCCC(N)C1=O.O=C(O)C(F)(F)F (mixture of isomers)", "UNITS_TEXT": "nM", "IC50": 1570}
{"COMPOUND": "NC1CCCN(P(N)(=O)NS(=O)(=O)O)C1=O (stereo not shown) [WTC0260B]", "UNITS_TEXT": "nM", "IC50": 6260}
{"COMPOUND": "N[C@@H](CC(=O)N1CCN(C(c2ccc(F)cc2)c2ccc(F)cc2)CC1)C(=O)N1Cc2ccccc2C1 [1G244, reference compound]", "UNITS_TEXT": "nM", "IC50": 14}
